# SUBJECT OF TEST: Glucose transporter (Leishmania mexicana)
# METHOD DESCRIPTION: ST_JUDE_LEISH: Cytotoxicity at 2uM final concentration against transgenic Leishmania Mexicana promastigotes LmGT2 that are glucose transport deficient and complemented with the L. Mexicana glucose transporter 2. Activity is measured by DNA content using SYBR green in vitro
# Format: functional
READOUT: inhibition (%)
# number only, unit % dropped from output

Below: 3 compounds and their reported inhibition.
CCN(CC)/C(=N/C(=N)NCc1cccc(Cl)c1)NCCCCCCN/C(=N\C(=N)NCc1cccc(Cl)c1)N(CC)CC
2.27
COc1ccc2nccc([C@@H](O)CN3CCC(NCc4cc5c(Cl)cccc5[nH]4)CC3)c2c1
2.34
OC(CNc1cccc(Cl)c1)Cn1c2ccc(Cl)cc2c2cc(Cl)ccc21 (stereo not given)
2.34

Record summary for `COc1ccc(C(=O)O)cc1OCc1ccccc1` : reported inhibition = 0.75

compound `Cc1ccc(C2(CN3CCC(NC(=O)c4cc[nH]n4)CC3)CCCCC2)cc1` , inhibition observed: -0.05

response.value for `COc1ccc(-c2cnc(N)c(-c3nc4cc(Br)ccc4[nH]3)c2)cc1` (field: inhibition) = 6.12
